The measurements presented in this section are drawn from the supplement of paper PMC9694430.

Tested on: LOC_OS02G07810-cb001
Assay Info: thermal shift delta Tm vs DMSO control; higher = stronger stabilization (binding);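 note: purified Escherichia coli-expressed rice kinase domain construct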
Setup Conditions: 12.5 µM; protein concentration 2 µM
Classes (thermal shift delta Tm): lower (below 0.2 °C), middle (0.2 °C to below 1 °C), upper (1 °C or more)

{"columns": ["Compound", "Qualitative Label"],
 "data": [
  ["Cc1[nH]c(/C=C2\\C(=O)Nc3ccc(S(=O)(=O)N(C)c4cccc(Cl)c4)cc32)c(C)c1C(=O)N1CCN(C)CC1", "lower"],
  ["COc1nccc(-c2c(-c3ccc(F)cc3)ncn2C2CCC(O)CC2)n1 (centres undefined)", "middle"],
  ["CC(C)CCN1c2nc(Nc3cc(F)c(O)c(F)c3)ncc2N(C)C(=O)C1C (centres undefined)", "upper"],
  ["COc1ccc(S(=O)(=O)N(CCO)c2ccccc2CN(C)C/C=C/c2ccc(Cl)cc2)cc1 [KN-93 Phosphate]", "middle"],
  ["Cc1cc(Nc2cc(CN3CCOCC3)c3nc(C)c(Cc4ccc(Cl)cc4F)n3n2)n[nH]1", "lower"],
  ["Oc1cc(O)cc(/C=C/c2ccc(O)c(O)c2)c1", "upper"],
  ["CS(=O)(=O)N1CCN(Cc2cc3nc(-c4cccc5[nH]ncc45)nc(N4CCOCC4)c3s2)CC1", "middle"],
  ["COc1cc(OC)cc(-c2cc3cnc(N)nc3nc2NC(=O)NC(C)(C)C)c1", "lower"],
  ["Cc1[nH]c(/C=C2\\C(=O)Nc3ccccc32)c(C)c1CCC(=O)O [Orantinib (TSU-68, SU6668)]", "upper"]
]}

====

Tested on: LOC_OS03G50810-cb003
Assay Info: thermal shift delta Tm vs DMSO control; higher = stronger stabilization (binding)
Setup Conditions: 12.5 µM; protein concentration 2 µM
# thermal shift delta Tm listing for each entry below

{"columns": ["Compound", "Target System", "thermal shift delta Tm"],
 "data": [
  ["C#Cc1cccc(Nc2ncnc3cc(OCCOC)c(OCCOC)cc23)c1", "LOC_OS03G50810-cb003", "1.07 °C"],
  ["CCCCNc1ncc(C(=O)NCc2ccc(-n3ccnc3)cc2)c(NC2CCC(O)CC2)n1 (stereo not given)", "LOC_OS03G50810-cb003", "4.77 °C"],
  ["Cc1cn(-c2cc(NC(=O)c3ccc(C)c(Nc4nccc(-c5cnccn5)n4)c3)cc(C(F)(F)F)c2)cn1", "LOC_OS03G50810-cb003", "0.14 °C"],
  ["Cc1c(CN2CCN(C(=O)[C@H](C)O)CC2)sc2c(N3CCOCC3)nc(-c3cnc(N)nc3)nc12", "LOC_OS03G50810-cb003", "0.78 °C"],
  ["Oc1cc(O)cc(/C=C/c2ccc(O)c(O)c2)c1", "LOC_OS03G50810-cb003", "0.47 °C"],
  ["Cc1ccc(Nc2cc(N[C@@H]3CCCC[C@@H]3N)nnc2C(N)=O)nc1C", "LOC_OS03G50810-cb003", "1.11 °C"],
  ["COc1ccc(COc2ccc(Cc3cnc(N)nc3N)cc2OC)cc1", "LOC_OS03G50810-cb003", "0.55 °C"],
  ["O=c1cc(N2CCOCC2)oc2c(-c3ccccc3)cccc12", "LOC_OS03G50810-cb003", "0.41 °C"],
  ["CCN(CC)CCCC(C)Nc1nc(C)cc(Nc2ccc3nc(C)cc(N)c3c2)n1 (stereo not given)", "LOC_OS03G50810-cb003", "0.25 °C"],
  ["N#C/C(=C(/N)Sc1ccc(N)cc1)c1ccccc1C(F)(F)F", "LOC_OS03G50810-cb003", "-0.02 °C"]
]}

====

Tested on: LOC_OS01G60330-cb001
Assay Info: thermal shift delta Tm vs DMSO control; higher = stronger stabilization (binding)
Setup Conditions: 12.5 µM; protein concentration 2 µM
# thermal shift delta Tm listing for each entry below

{"columns": ["Compound", "thermal shift delta Tm [°C]"],
 "data": [
  ["COc1cc2ncnc(Nc3ccc(O)c(Br)c3)c2cc1OC", 0.32],
  ["Nc1cccc(-c2cc3c(Oc4cccc(O)c4)ncnc3[nH]2)c1", 0.91],
  ["NC(=O)c1ccc(N(C(N)=O)c2c(F)cccc2F)nc1-c1ccc(F)cc1F", -0.16],
  ["Cc1cc(F)c(Nc2ncnc3cc(OCc4ccccc4)ccc23)cc1O", 0.94],
  ["C[C@H](Nc1ncnc2[nH]cnc12)c1cc2ccc(F)cc2nc1-c1ccccn1", 1.36],
  ["FC(F)(F)c1ccc(/C=C/c2nc(COc3ccc(CCCCn4ccnn4)cc3)co2)cc1", 0.99],
  ["CCCCCCCCCC(=O)CC(O)S(=O)(=O)O (centres undefined) [Sodium Houttuyfonate]", 0.04],
  ["COc1ccc(S(=O)(=O)N(CCO)c2ccccc2CN(C)C/C=C/c2ccc(Cl)cc2)cc1 [KN-93 Phosphate]", 2.19],
  ["COc1cc(OC)c(/C=C/S(=O)(=O)Cc2ccc(OC)c(NCC(=O)O)c2)c(OC)c1", 0.72]
]}

====

Tested on: LOC_OS05G28520-cb001
Assay Info: thermal shift delta Tm vs DMSO control; higher = stronger stabilization (binding)
Setup Conditions: 12.5 µM; protein concentration 2 µM
Where a name gives a salt, the structure may show the parent alone.
Assign satisfied to entries whose thermal shift delta Tm meets or exceeds 0.1 °C; assign not satisfied to the rest.

{"columns": ["Compound", "Qualitative Label"],
 "data": [
  ["Cc1cc(O)c(-c2ccc([C@@H](C)CN)cc2)c2c1[nH]c(=O)c1sccc12 [OTS514 hydrochloride]", "satisfied"],
  ["C[C@@]1(C(=O)Nc2ccc(F)nc2)CCCN1c1nc(Nc2cc(C3CC3)n[nH]2)c2cccn2n1", "satisfied"],
  ["CC1=C(C(=O)Nc2cc3cn[nH]c3cc2F)C(c2ccc(C(F)(F)F)cc2)CC(=O)N1 (stereo not drawn)", "not satisfied"],
  ["O=C1c2c(O)cc(O)cc2OC(c2ccc(O)c(O)c2)C1O (stereo not drawn) [Taxifolin (Dihydroquercetin)]", "satisfied"],
  ["O=C(Nc1nc2cccc(-c3ccc(CN4CCS(=O)(=O)CC4)cc3)n2n1)C1CC1", "satisfied"],
  ["CC(C)(CO)n1cc(C(=O)c2cncc(NC(=O)Cc3ccc(Cl)cn3)c2)c2cnc(N)nc21", "satisfied"],
  ["O=c1c(-c2ccc(O)cc2)coc2cc(O)cc(O)c12", "not satisfied"],
  ["N#Cc1cnc(Nc2cc(NC[C@H]3CNCCO3)c(C(F)(F)F)cn2)cn1", "not satisfied"]
]}

====

# thermal shift delta Tm listing for each entry below
Test system: LOC_OS02G08530-cb003
Assay Info: thermal shift delta Tm vs DMSO control; higher = stronger stabilization (binding)
Setup Conditions: 12.5 µM; protein concentration 2 µM

{"columns": ["Given Smiles", "Target System", "Unit Annotation", "thermal shift delta Tm"],
 "data": [
  ["O=C(Nc1cccc(C(F)(F)F)c1)c1cccc2cc(Oc3cc(CO)ncn3)ccc12", "LOC_OS02G08530-cb003", "°C", 0.95],
  ["N#Cc1c(O)c2c(-c3ccc(-c4ccccc4O)cc3)csc2[nH]c1=O", "LOC_OS02G08530-cb003", "°C", 1.2],
  ["Cc1cc(Nc2nc(N[C@@H](C)c3ccc(F)cc3)c(C#N)cc2F)n[nH]1", "LOC_OS02G08530-cb003", "°C", 1.49],
  ["C[C@H](Nc1ncnc2[nH]cnc12)c1cc2ccc(F)cc2nc1-c1ccccn1", "LOC_OS02G08530-cb003", "°C", 0.28],
  ["Nc1nc(Nc2ccc(S(N)(=O)=O)cc2)nn1C(=O)c1c(F)cccc1F", "LOC_OS02G08530-cb003", "°C", 1.98]
]}

====

Test system: LOC_OS02G07810-cb001
Assay Info: thermal shift delta Tm vs DMSO control; higher = stronger stabilization (binding)
Setup Conditions: 12.5 µM; protein concentration 2 µM

{"columns": ["Molecule", "thermal shift delta Tm [°C]"],
 "data": [
  ["CN1CCN(c2ccc(Nc3cc(-c4cccc(-n5ccc6cc(C7CC7)cc(F)c6c5=O)c4CO)cn(C)c3=O)nc2)CC1", 0.37],
  ["S=C(NCc1ccc2c(c1)OCO2)N1CCN(c2ncnc3c2oc2ccccc23)CC1 [Amuvatinib (MP-470)]", 1.04],
  ["CCS(=O)(=O)c1cccc(-c2cc(C(=O)NC3CCN(C)CC3)c(C)c3[nH]c4ncc(C)cc4c23)c1", 0.49],
  ["Cc1cc2c(F)c(Oc3ncnn4cc(OC[C@@H](C)O)c(C)c34)ccc2[nH]1", 0.7],
  ["CC(C)(C)c1nc(-c2cccc(NS(=O)(=O)c3c(F)cccc3F)c2F)c(-c2ccnc(N)n2)s1", 1.44],
  ["CCCCOc1c(C(=O)c2c(F)cc(C)cc2F)c[nH]c2nncc1-2", 0.81],
  ["C[C@@H](Oc1cc(-n2cnc3ccc(CN4CCN(C)CC4)cc32)sc1C(N)=O)c1ccccc1C(F)(F)F", 1.22],
  ["O=C(O)c1ccc2c(c1)nc(Nc1cccc(Cl)c1)c1ccncc12 [Silmitasertib (CX-4945)]", 0.97]
]}
